assay: chemical genetic growth profiling, strain panel (AID 1159580);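 further: tested at 20 µM; growth read once vehicle control cultures reached saturation at 30 °C; 1 = growth at the plate median or of vehicle wells; lower values mean less growth of the strain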; conditions: S. cerevisiae deletion strains, growth OD, locus YLR058C, strain SHM2, stronger effect = lower value
About 2,000 (36%) of roughly 5,500 compounds were called active. Another 18% or so got no clear call; they are omitted. The list shows a part of the results.
normalized growth values, listed per item
observable: normalized growth

1) COC(=O)C[C@H]1C(C)(C)[C@@H](O)[C@@H]2CC3=C4CC(O)O[C@@H](c5ccoc5)[C@]4(C)CCC3[C@@]1(C)C2=O (some centres undefined): 1
2) CC(=O)[C@@]1(O)CCC2C3C=C(Cl)C4=CC(=O)[C@@H]5CC5[C@]4(C)C3CC[C@@]21C (some centres undefined): 1.01
3) CC(=O)OCC(=O)[C@@]1(O)CCC2C3C[C@H](C)C4=CC(=O)C=CC4(C)C3[C@@H](O)CC21C (some centres undefined): 1.01
4) CC1(C)[C@@H]2CC[C@@]1(C)C(=O)C2: 1
5) C/C=C/CC(C)C(O)C1C(=O)NC(CC)C(=O)N(C)CC(=O)N(C)C(CC(C)C)C(=O)NC(C(C)C)C(=O)N(C)C(CC(C)C)C(=O)NC(C)C(=O)NC(C)C(=O)N(C)C(CC(C)C)C(=O)N(C)C(CC(C)C)C(=O)N(C)C(C(C)C)C(=O)N1C (centres undefined): 1.01
6) C[N+]1(C)C[C@H](O)[C@H](C(=O)[O-])C1: 1.01
7) CC(C)=CC1C(CO)C1(C)C (centres undefined): 1.02
8) NCC(O)CC(=O)O (centres undefined): 1.02
9) COc1nc(NC(C)C)nc(NC(C)C)n1: 1
